Just for reference, paper PMC4167698 is where these values come from.

test system: THP-1 cells; experiment: MTS cell proliferation assay, THP-1; assay type: cell-based, human; settings: THP-1, 24 h, MTS
pEC50: −log10 of the molar value.
As shown below, each of these compounds has a reported pEC50 value.
reported endpoint: pEC50

compound	prefix operator	measured value
CC/C=C\C/C=C\C/C=C\CCCCCCCC(=O)O	<	4.00
CC/C=C\C/C=C\C/C=C\C/C=C\C/C=C\C/C=C\CCC(=O)OC[C@H]1O[C@@H](Oc2cc(O)cc(O)c2C(=O)CCc2ccc(O)cc2)[C@H](O)[C@@H](O)[C@@H]1O	=	4.56
CC/C=C\C/C=C\C/C=C\C/C=C\C/C=C\CCCC(=O)OC[C@H]1O[C@@H](Oc2cc(O)cc(O)c2C(=O)CCc2ccc(O)cc2)[C@H](O)[C@@H](O)[C@@H]1O [Pz-EPA ester, eicosapentaenoic acid ester (EPA) of Pz]	=	4.83
CC/C=C\C/C=C\C/C=C\C/C=C\C/C=C\C/C=C\CCC(=O)O	<	4.00
